Target: BIR3 domain of human cIAP-1 (residues 267-363) (Homo sapiens (Human), UniProt Q13490)
Experiment: cIAP-1 in vitro competitive displacement binding assay (fluorescence polarization; Probe A AVPIK(5&6FAM)-amide or Probe B AbuRPFK(5&6FAM)-amide)
Structures can show the parent of a compound that is named as a salt.
REPORTED_ENDPOINT: IC50

>  <COMPOUND>
COC[C@H]1CN[C@H](C)CN1CC(=O)N1CC(C)(C)c2cnc(Cc3cccc(Cl)c3)cc21 [Example 86, hydrochloride salt]

>  <RESULT>
< 1000 nM

$$$$
>  <COMPOUND>
COC[C@H]1CN[C@H](C)CN1CC(=O)N1CC(C)(C)c2cnc(C#N)cc21 [Example 103]

>  <RESULT>
< 1000 nM

$$$$
>  <COMPOUND>
COC[C@H]1CN[C@H](C)CN1CC(=O)N1CC(C)(C)c2cc(=O)n(Cc3ccccc3)cc21 [Example 67, hydrochloride salt]

>  <RESULT>
< 1000 nM

$$$$
>  <COMPOUND>
COC[C@H]1CN[C@H](C)CN1CC(=O)N1CC(C)(C)c2cnc(N(C)c3ccccc3)cc21 [Example 84, hydrochloride salt]

>  <RESULT>
< 10000 nM

$$$$
>  <COMPOUND>
C[C@@H]1CN(CC(=O)N2CCc3ccc(S(=O)(=O)c4ccccc4)cc32)CCN1 [Example 33, hydrochloride salt]

>  <RESULT>
< 10000 nM

$$$$
>  <COMPOUND>
CCC(F)(F)c1cc2c(cn1)C(C)(C)CN2C(=O)CN1C[C@@H](C)NC[C@@H]1CN1CCCC1=O [Example 198]

>  <RESULT>
< 1000 nM

$$$$
>  <COMPOUND>
CC[C@@H]1COCCN1C[C@H]1CN[C@H](C)CN1CC(=O)N1CC(C)(C)c2ncc(C(F)(F)CC)cc21 [Example 255, dihydrochloride]

>  <RESULT>
< 1000 nM

$$$$
